// data source = ChEMBL document CHEMBL5046276

# Assay overview: Cytotoxicity against human HepG2 cells incubated for 72 hrs by CCK-8 assay
Measured parameter: IC50 at 72 h

Per the record, Cn1cc(CN2CC3(CCN(c4ncc(C(=O)NO)cn4)C3)C2)c2cccnc21 has IC50 at 72 h of > 12.2 µM

Lab note: Cn1cc(CN2CC3(CCN(c4ncc(C(=O)NO)cn4)C3)C2)c2ccncc21 gave IC50 at 72 h of > 20 µM

Input O=C(NO)c1cnc(N2CCC3(CN(Cc4cccc5ccccc45)C3)C2)nc1 . Output IC50 at 72 h: > 0.77 µM

Query Cn1cc(CN2CC3(CCN(c4ncc(C(=O)NO)cn4)C3)C2)c2cnccc21 yields IC50 at 72 h of > 20 µM

---

# Assay overview: Selectivity index, ratio of IC50 for cytotoxicity against HEK293T cells to IC50 for antimalarial activity against asexual blood stage wild-type Plasmodium falciparum 3D7
# Format: toxicity, cell-based
# Setup conditions: human, read-out: Ratio IC50
Would you kindly list selectivity ratio for each of these molecules?
Answer with a bare number; do not write a unit.

Please fill in: selectivity ratio reported for O=C(NO)c1cnc(N2CCC3(CN(Cc4cncc5ccccc45)C3)C2)nc1 = 934

For record O=C(NO)c1cnc(N2CCC3(CN(Cc4ccsc4)C3)C2)nc1 the listed selectivity ratio is 739

Form field selectivity ratio, entry O=C(NO)c1cnc(N2CCC3(CN(CC4CCCCC4)C3)C2)nc1 : 160

The molecule listed as Cl.O=C(NO)c1cnc(N2CCC3(CN(Cc4cnc5ccccc5c4)C3)C2)nc1 shows selectivity ratio equal to 953

---

# Assay overview: Cytotoxicity against HEK293T cells incubated for 72 hrs by CCK-8 assay
# Setup conditions: human
Measured parameter: IC50 at 72 h

get_value(item= Cn1cc(CN2CC3(CCN(c4ncc(C(=O)NO)cn4)C3)C2)c2cnccc21 , readout=IC50 at 72 h) returns > 20 µM

Reported IC50 at 72 h ( O=C(NO)c1cnc(N2CCC3(CN(Cc4cccnc4)C3)C2)nc1 ) = > 20 µM

The measured IC50 at 72 h associated with O=C(NO)c1cnc(N2CCC3(CN(Cc4cccs4)C3)C2)nc1 reads > 4.93 µM

Reported IC50 at 72 h ( Cl.Cn1cc(CN2CC3(CCN(c4ncc(C(=O)NO)cn4)C3)C2)c2ncccc21 ) = > 20 µM

The measured IC50 at 72 h associated with Cn1cc(CN2CC3(CCN(c4ncc(C(=O)NO)cn4)C3)C2)c2ccncc21 reads > 20 µM

---

# Assay overview: Selectivity index, ratio of IC50 for cytotoxicity against human HepG2 cells to IC50 for antimalarial activity against asexual blood stage wild-type Plasmodium falciparum 3D7
# Type: toxicity, cell-based
# Setup conditions: read-out: Ratio IC50
Measured parameter: selectivity ratio
Please give the numeric answer without any surrounding text.

// selectivity ratio value for O=C(NO)c1cnc(N2CCC3(CN(Cc4cccc5ccncc45)C3)C2)nc1 : 300

Record O=C(NO)c1cnc(N2CCC3(CN(Cc4ccc(-c5ccccc5)cc4)C3)C2)nc1 , field selectivity ratio: 137

O=C(NO)c1cnc(N2CCC3(CN(Cc4csc5ccccc45)C3)C2)nc1 has a reported selectivity ratio of 49

Measured selectivity ratio of O=C(NO)c1cnc(N2CCC3(CN(Cc4cncc5ccccc45)C3)C2)nc1 : 258

selectivity ratio in this record for O=C(NO)c1cnc(N2CCC3(CN(Cc4cccs4)C3)C2)nc1 : 165

For O=C(NO)c1cnc(N2CCC3(CN(Cc4cc5ccccc5o4)C3)C2)nc1 the compound record lists selectivity ratio as 543

selectivity ratio measured on O=C(NO)c1cnc(N2CCC3(CN(Cc4ccco4)C3)C2)nc1 = 144
